# credit: ChEMBL document CHEMBL1201862

Test system: LXFL 529
Assay: NCI tumour cell line growth inhibition, 48 h
Activity calls are given as the source filed them. No stated cut-off is given here; in the data, active = GI50 up to about 1.1 µM and inactive = higher.
Give GI50 for every item shown.

Value of measured GI50 for the entry C=C1C(=O)OC2/C=C(\C)C(OC(C)=O)C3OC3C(C)(O)CC(OC(=O)/C(C)=C/C)C12 (stereo unspecified) : 2.44 µM (inactive)

Short answer for CCc1ccccc1NC(=O)CC1NC(=O)CS1 (stereo unspecified) : GI50 was > 100 µM (inactive)

compound CC(CCc1ccc2c(c1)c(N)c1ccc(N)cc1[n+]2[O-])CC(C)(C)C (stereo unspecified) , GI50 observed: 1.53 µM (inactive)

Looking up CC(C)N(C(=O)C12C3C4C5(C(=O)O)C(C1C35I)C42C(=O)O)C(C)C (stereo unspecified) , I found its GI50 recorded as > 100 µM (inactive)

// COc1cccc2c1C(=O)c1c(O)c3c(c(O)c1C2=O)CC(O)(C(O)CO)CC3OC1CC(N2CCOCC2)C(O)C(C)O1 (stereo unspecified) : GI50 value = 0.0124 µM (active)

Noted for CCC(C)CN1C(=O)NC(Cc2ccccc2)C1=O (stereo unspecified) : its GI50 reads > 100 µM (inactive)

Form: compound = `COC(=O)[C@H]1C=C[C@@H](C)n2c(=O)c3cc4ccccc4cc3c(=O)n21` ; GI50 = > 100 µM (inactive)

`COc1ccc(Cc2c3cc(OC)c(OC)cc3cc[n+]2C)cc1` has a reported GI50 of 3.18 µM (inactive)

# compound `Nc1nc(N)c2nc(-c3ccco3)cnc2n1` ; its GI50 = 64.1 µM (inactive)

# GI50 (compound: CC1(C2CCC3(C)OC3C2)CO1 (stereo unspecified) ) is > 100 µM (inactive)

`Nc1nc(SCc2ccccc2Cl)c2[nH]cnc2n1` has a reported GI50 of 62.1 µM (inactive)
